Entry source: patent US11207312B2

Biological target: VIM-2 (Escherichia coli)
Assay: biochemical
Details: CCF2-FA fluorescence assay; read-out: VIM2 IC50
PARAMETER: pIC50
Note on units: pIC50 is unitless, being -log10 of a concentration expressed in mol/L.

Request body: readout pIC50, system VIM-2 (Escherichia coli), query `N.NC[C@@H](O)CNS(=O)(=O)c1ccc(N2CCN(CC(=O)O)CC2)c(-c2nnn[nH]2)c1S(N)(=O)=O` . Return the value.
7.81

Recall the recorded pIC50 for `NS(=O)(=O)c1c(S(=O)(=O)N[C@@H]2CCNC2)ccc(NCC2CCNCC2)c1-c1nn[nH]n1` with VIM-2 (Escherichia coli) and state it.
7.16

Notebook: pull reported pIC50 for VIM-2 (Escherichia coli), entry `NC[C@@H](O)CNS(=O)(=O)c1ccc(N2CCN(CCO)CC2)c(-c2nnn[nH]2)c1S(N)(=O)=O`
8.13

---

Test system: Serratia marcescens expressing IMP-1 (CL5741)
Type: cell-based
Conditions: with imipenem 1 μg/ml; 95% inhibition of bacterial growth
Assign CL5741 S. marcescens MITC95 IMP to each entry below.
Reply with just the number (in µM).

Tell me the measured CL5741 S. marcescens MITC95 IMP of NC[C@@H](O)CNS(=O)(=O)c1ccc(Nc2ncc[nH]2)c(-c2nn[nH]n2)c1S(N)(=O)=O [Example 203] , please.
0.78

Find the recorded CL5741 S. marcescens MITC95 IMP belonging to NCC1(O)CCN(c2ccc(S(=O)(=O)N[C@@H]3CCNC3)c(S(N)(=O)=O)c2-c2nnn[nH]2)CC1 [Example 85] and report it.
1.56

# CL5741 S. marcescens MITC95 IMP lookup, item N[C@@H]1CCCN(c2ccc(S(=O)(=O)N[C@@H]3CCNC3)c(S(N)(=O)=O)c2-c2nn[nH]n2)C1=O [Example 155]
3.13

Need CL5741 S. marcescens MITC95 IMP, item NCCC1CN(c2ccc(S(=O)(=O)NC[C@H](O)CN)c(S(N)(=O)=O)c2-c2nn[nH]n2)C1 [Example 144]
6.25

Recorded CL5741 S. marcescens MITC95 IMP for NC/C=C1\CCCN(c2ccc(S(=O)(=O)NC[C@H](O)CN)c(S(N)(=O)=O)c2-c2nn[nH]n2)C1 (single isomer, unassigned; isomer b) [Example 206] , please?
1.56

---

System: P. aeruginosa MB9798 (efflux+, IMP-1 plasmid)
Details: efflux + (MB9798) strain; imipenem at 2 μg/mL; in the presence of a class A, C, D serine β-lactamase inhibitor closely related to relebactam
PARAMETER: MB9798 MITC95 P. aeruginosa uM Efflux WT (µM)
Give the value in µM but do not write µM after it.

Record request: MB9798 MITC95 P. aeruginosa uM Efflux WT value, item CC1(C)CN(c2ccc(S(=O)(=O)NC[C@H](O)CN)c(S(N)(=O)=O)c2-c2nn[nH]n2)CCN1CCO [Example 173]
6.25

Returns the measured MB9798 MITC95 P. aeruginosa uM Efflux WT for the input molecule. Input: NCC1CCN(c2ccc(S(=O)(=O)N[C@@H](CN)CO)c(S(N)(=O)=O)c2-c2nn[nH]n2)CC1 [Example 189]
0.78

MB9798 MITC95 P. aeruginosa uM Efflux WT for NCCN1CCN(c2ccc(S(=O)(=O)NC[C@H](O)CN)c(S(N)(=O)=O)c2-c2nnn[nH]2)CC1 [Example 51] ?
0.78

Fill blank: measured MB9798 MITC95 P. aeruginosa uM Efflux WT of the molecule N[C@@H]1CCCN(c2ccc(S(=O)(=O)N[C@@H]3CCNC3)c(S(N)(=O)=O)c2-c2nnn[nH]2)C1 [Example 86] is ____.
12.50

Look up MB9798 MITC95 P. aeruginosa uM Efflux WT: NCCNS(=O)(=O)c1ccc(N2CCC(CO)CC2)c(-c2nnn[nH]2)c1S(N)(=O)=O [Example 43]
1.56

Dear colleague, I am looking for the recorded MB9798 MITC95 P. aeruginosa uM Efflux WT of the following molecule: NC[C@@H](O)CNS(=O)(=O)c1ccc(N2CCC(CCn3cccn3)CC2)c(-c2nn[nH]n2)c1S(N)(=O)=O [Example 27]
25.00

Returns the measured MB9798 MITC95 P. aeruginosa uM Efflux WT for the input molecule. Input: CNCC1CCN(c2ccc(S(=O)(=O)N[C@@H]3CCNC3)c(S(N)(=O)=O)c2-c2nnn[nH]2)CC1 [Example 74]
1.56
